System: scratching action induced by Compound 48/80
Experiment: Anti-pruritic activity test by application (Compound 48/80 scratching)
Assay type: in vivo, mouse (Crj:CD-1 (ICR))
Details: Mus musculus, topical, read-out: Itching inhibition ratio % (Concentration %)
PARAMETER: inhibition in vivo at 1 % (%)
Give bare numbers, in %.

Record excerpt, results attached:
O=C(O)Cc1nsc(NC(=O)c2cc3c(n(CC4CCCCC4)c2=O)CCCCCC3)n1	106
CC(C)(NC(=O)c1cc2c(n(CC3CCCCC3)c1=O)CCCCCC2)C(=O)N1CCC(C(=O)NNS(C)(=O)=O)CC1	86
CCCCC(CC(=O)O)NC(=O)c1cc2c(n(CC3CCCCC3)c1=O)CCCCCC2 (stereo not drawn)	79

Go through the list and state inhibition in vivo at 1 % for each entry.
1. CC(C)(NC(=O)c1cc2c(n(CC3CCCCC3)c1=O)CCCCCC2)C(=O)N1CCC(C(=O)N2CCOCC2)CC1
2. O=C(O)Cc1csc(NC(=O)c2cc3c(n(CC4CCCCC4)c2=O)CCCCCC3)c1
3. CC(C)(CNCCC(N)=O)NC(=O)c1cc2c(n(CC3CCCCC3)c1=O)CCCCCC2
4. CC(C)(NC(=O)c1cc2c(n(CC3CCCCC3)c1=O)CCCCCC2)C(=O)N1CCC(C(=O)N2CCCCC2)CC1
5. CCc1c(C)cc(C(=O)NC(CC)(CC)CC(=O)O)c(=O)n1Cc1ccc(F)cc1
6. CN(CCO)C(=O)C(C)(C)NC(=O)c1cc2c(n(CC3CCCCC3)c1=O)CCCCCC2
7. O=C(N[C@@H](C(=O)O)c1ccccc1)c1cc2c(n(CCCC(F)(F)F)c1=O)CCCCCC2

[96, 93, 81, 67, 106, 74, 100]

Go through the list and state inhibition in vivo at 1 % for each entry.
1. CC(C)(NC(=O)c1cc2c(n(CC3CCCCC3)c1=O)CCCCCC2)C(=O)N1CCC(NS(C)(=O)=O)CC1
2. CCCC(CC(=O)O)NC(=O)c1cc2c(n(CC3CCCCC3)c1=O)CCCCCC2 (stereo not drawn)

97
71
